target: Fyn (UniProt P06241); assay: phosphorylation enrichment, bacterial display (enrichment ratio); higher = better substrate or ligand; peptides without Tyr show the background
Sequence (P06241 whole entry, looked up): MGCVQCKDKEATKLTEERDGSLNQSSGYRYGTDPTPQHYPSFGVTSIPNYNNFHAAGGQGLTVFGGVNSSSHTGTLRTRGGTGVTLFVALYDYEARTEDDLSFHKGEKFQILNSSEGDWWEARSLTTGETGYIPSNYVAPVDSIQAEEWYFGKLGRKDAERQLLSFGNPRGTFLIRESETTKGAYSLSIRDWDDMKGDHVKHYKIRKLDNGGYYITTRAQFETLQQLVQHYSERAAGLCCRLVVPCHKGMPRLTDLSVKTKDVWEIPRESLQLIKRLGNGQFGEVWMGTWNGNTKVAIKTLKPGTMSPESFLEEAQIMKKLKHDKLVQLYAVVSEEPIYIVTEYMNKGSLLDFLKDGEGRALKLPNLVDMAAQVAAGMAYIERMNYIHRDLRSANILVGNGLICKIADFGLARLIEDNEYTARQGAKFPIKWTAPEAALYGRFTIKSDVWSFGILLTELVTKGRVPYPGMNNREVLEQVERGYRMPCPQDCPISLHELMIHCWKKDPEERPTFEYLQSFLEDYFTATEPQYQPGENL
For each entry below, report its phosphorylation enrichment value.
Numbers only.

Solved entries:
Sequence code: GKGGSYSQAAC [HLA-B_Y344]
Measured number: 0.342

Sequence code: HIPFRYPKEFQ [IDS_Y234]
Measured number: 0.424

Sequence code: HVKHNYECLVY [XRCC5_Y416_I412V]
Measured number: 0.922

Sequence code: AVAFVYYKSIG [ADGRL4_Y301]
Measured number: 0.458

Sequence code: AGTILYHAHLD [ASS1_Y291]
Measured number: 0.479

Sequence code: FISVGYVDDTQ [HLA-B_Y51]
Measured number: 0.47

Consider the following items and state reported phosphorylation enrichment for each.
1. MKGEYYRYLAE [YWHAG_Y131_D129E]
2. YISLIYTNYEV [GSTP1_Y109_A114V]
3. TLQSMFGCDVG [HLA-B_Y123_Y123F]
4. KLMTEYKRRKQ [ARFGEF3_Y2029_K2031R]

Reply:
1: 0.606; 2: 4.07; 3: 0.648; 4: 0.544

###

biological target: Fes (UniProt P07332); test: phosphorylation enrichment, bacterial display (enrichment ratio); higher = better substrate or ligand; peptides without Tyr show the background
Sequence (P07332 whole entry, looked up): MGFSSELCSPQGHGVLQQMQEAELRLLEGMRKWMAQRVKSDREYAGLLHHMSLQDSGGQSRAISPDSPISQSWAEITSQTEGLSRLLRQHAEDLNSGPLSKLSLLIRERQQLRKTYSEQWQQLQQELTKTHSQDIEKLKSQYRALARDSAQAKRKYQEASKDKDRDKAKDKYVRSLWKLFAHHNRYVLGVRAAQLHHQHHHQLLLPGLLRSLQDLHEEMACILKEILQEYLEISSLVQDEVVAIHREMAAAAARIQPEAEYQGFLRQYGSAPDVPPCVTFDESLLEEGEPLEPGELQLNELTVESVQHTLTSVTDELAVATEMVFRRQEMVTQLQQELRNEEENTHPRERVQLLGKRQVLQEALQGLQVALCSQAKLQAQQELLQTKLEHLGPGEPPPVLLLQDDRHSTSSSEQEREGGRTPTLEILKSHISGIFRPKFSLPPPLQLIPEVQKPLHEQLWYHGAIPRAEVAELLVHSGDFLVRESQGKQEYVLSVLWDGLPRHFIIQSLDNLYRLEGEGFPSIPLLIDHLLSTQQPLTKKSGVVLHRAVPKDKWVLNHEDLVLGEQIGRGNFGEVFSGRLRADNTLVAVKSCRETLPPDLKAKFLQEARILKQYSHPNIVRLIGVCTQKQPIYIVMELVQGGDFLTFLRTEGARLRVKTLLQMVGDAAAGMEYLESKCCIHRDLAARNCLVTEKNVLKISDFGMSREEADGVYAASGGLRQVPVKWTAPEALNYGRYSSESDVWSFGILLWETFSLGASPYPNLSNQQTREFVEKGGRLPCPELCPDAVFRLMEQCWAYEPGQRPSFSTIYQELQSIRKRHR
For each entry below, report its phosphorylation enrichment value.
One number for each entry.

Sequence code: KAEQLYIGVTV [EFHC2_Y509_E507Q]
phosphorylation enrichment: 1.25

Sequence code: IHHIDYFKKTT [FGFR1_Y653_YF]
phosphorylation enrichment: 0.822

Sequence code: QMVGMYAFSYM [AVPR2_Y124_S126F]
phosphorylation enrichment: 1.86

Sequence code: NPQKSYFIRLF [WAS_Y83_YF]
phosphorylation enrichment: 1.4

Sequence code: VVQGIYGFHHH [UFSP2_Y285_Y290H_YF]
phosphorylation enrichment: 0.776

Consider the following items and state reported phosphorylation enrichment for each.
1. KGSLPYSLILD [PKD1L2_Y406_N407S]
2. VEDQFYRVDCF [FHL1_Y208_C209R_YF]
3. GLGGGCGGASG [KRT8_Y54_Y54C]

Reply:
[1.23, 1.34, 0.817]

###

target: Hck (UniProt P08631); assay: phosphorylation enrichment, bacterial display (enrichment ratio); higher = better substrate or ligand; peptides without Tyr show the background
Sequence (P08631 whole entry, looked up): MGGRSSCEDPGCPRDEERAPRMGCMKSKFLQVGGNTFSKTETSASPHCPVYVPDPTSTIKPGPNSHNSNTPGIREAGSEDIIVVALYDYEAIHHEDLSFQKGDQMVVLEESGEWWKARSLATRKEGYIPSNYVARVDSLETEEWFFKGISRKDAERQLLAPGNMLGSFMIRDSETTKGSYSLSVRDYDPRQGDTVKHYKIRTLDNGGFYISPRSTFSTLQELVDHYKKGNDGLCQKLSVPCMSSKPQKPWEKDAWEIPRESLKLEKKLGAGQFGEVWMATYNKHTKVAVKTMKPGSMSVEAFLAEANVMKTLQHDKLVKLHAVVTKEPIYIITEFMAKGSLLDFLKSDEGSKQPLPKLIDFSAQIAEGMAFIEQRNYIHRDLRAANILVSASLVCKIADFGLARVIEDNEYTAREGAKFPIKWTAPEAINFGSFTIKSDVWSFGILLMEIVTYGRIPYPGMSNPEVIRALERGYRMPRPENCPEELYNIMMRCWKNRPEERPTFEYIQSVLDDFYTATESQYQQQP
Quick rule for you: phosphorylation enrichment at 0.5 or higher means 1.0, lower means 0.0.

Sequence code: LVRPPYSFLAL [FOXI1_Y126_S129L_YF]
Group: 1.0
//
Sequence code: FDCGMYSHLQG [LGR4_Y848_YF]
Group: 1.0
//
Sequence code: LADMNYVHCDL [EPHB2_Y742_R745C]
Group: 0.0
//
Sequence code: HCFNSYTFPRL [PAK7_Y316_S312C_YF]
Group: 1.0
//
Sequence code: EFKKKYSDADI [CKAP5_Y1860_YF]
Group: 0.0
//
Sequence code: QEALEYFMKQT [PIK3CA_Y1038_M1043T]
Group: 1.0
//
Sequence code: DNLNNYVFQGQ [GRIN2A_Y978]
Group: 0.0
//
Sequence code: KVWGIYDCQQP [CYP3A7_Y75]
Group: 1.0
//
Sequence code: LADKPYTFEYY [FXN_Y118_D122Y]
Group: 1.0
//
Sequence code: TVLGEYASPKG [CYP24A1_Y407_L409S]
Group: 1.0

Please examine the following record next.
Ask: Kindly determine if phosphorylation enrichment recorded for KLMTEYKRRKQ [ARFGEF3_Y2029_K2031R] is above or exactly 0.5.
Reply: 1.0

###

system: c-Abl (mouse); test: phosphorylation enrichment, bacterial display (enrichment ratio); higher = better substrate or ligand; peptides without Tyr show the background
Quick rule for you: phosphorylation enrichment at 0.9 or higher means True, lower means False.

Field: example entries. Status: answers known.
Sequence code: LADMNYVHCDL [EPHB2_Y742_R745C]
Group: False

Sequence code: RQEEEYKRFSE [SFSWAP_Y133_L136F]
Group: False

Sequence code: ALWYIYLHTRS [ENG_Y614_S615L]
Group: False

Ask: Kindly determine if phosphorylation enrichment recorded for VEDQFYRVDCF [FHL1_Y208_C209R_YF] is above or exactly 0.9.
Reply: False

Ask: Kindly determine if phosphorylation enrichment recorded for KASRKYFAMKI [AKT3_Y173_G171R_YF] is above or exactly 0.9.
Reply: False

Ask: Kindly determine if phosphorylation enrichment recorded for LAGRFYALRSM [CKB_Y174_K177R_YF] is above or exactly 0.9.
Reply: False

Ask: Kindly determine if phosphorylation enrichment recorded for LRSELYFLIAR [PHIP_Y16] is above or exactly 0.9.
Reply: True

Ask: Kindly determine if phosphorylation enrichment recorded for TLQSMFGCDVG [HLA-B_Y123_Y123F] is above or exactly 0.9.
Reply: False

Ask: Kindly determine if phosphorylation enrichment recorded for VMLENYSNLVS [ZFP69_Y109] is above or exactly 0.9.
Reply: False

Ask: Kindly determine if phosphorylation enrichment recorded for DGMADYSDPSF [CDC5L_Y459_YF] is above or exactly 0.9.
Reply: True

Ask: Kindly determine if phosphorylation enrichment recorded for VGQRPYQPLPE [REEP3_Y170] is above or exactly 0.9.
Reply: False

Ask: Kindly determine if phosphorylation enrichment recorded for HFMKLYEEKTG [PARP1_Y618] is above or exactly 0.9.
Reply: False

Ask: Kindly determine if phosphorylation enrichment recorded for MICSAYALGGL [CPS1_Y590_R587C] is above or exactly 0.9.
Reply: False

Ask: Kindly determine if phosphorylation enrichment recorded for GRTNIYKNKKD [SLC26A3_Y520] is above or exactly 0.9.
Reply: False

Ask: Kindly determine if phosphorylation enrichment recorded for VVQGIYGFHHH [UFSP2_Y285_Y290H_YF] is above or exactly 0.9.
Reply: True

Ask: Kindly determine if phosphorylation enrichment recorded for RSPLRYTSILT [OR51B6_Y130] is above or exactly 0.9.
Reply: False

Ask: Kindly determine if phosphorylation enrichment recorded for YMLYQYLKQIE [RPAP3_Y569_D564Y] is above or exactly 0.9.
Reply: True

Ask: Kindly determine if phosphorylation enrichment recorded for EAIMTYVSSFY [ACTN4_Y260_K255E] is above or exactly 0.9.
Reply: False

Ask: Kindly determine if phosphorylation enrichment recorded for EKSREYHRLFE [PIK3R1_Y463_D464H_YF] is above or exactly 0.9.
Reply: False

Ask: Kindly determine if phosphorylation enrichment recorded for YLENYYDLKKD [MMP3_Y42] is above or exactly 0.9.
Reply: True

Ask: Kindly determine if phosphorylation enrichment recorded for KWRGQYDVANK [BTK_Y425_I429N] is above or exactly 0.9.
Reply: False

Ask: Kindly determine if phosphorylation enrichment recorded for FMFKVYSDPQP [FGFR1_Y280_C277Y_YF] is above or exactly 0.9.
Reply: True

Ask: Kindly determine if phosphorylation enrichment recorded for RLSARYFQGDL [PDK3_Y337_Y334S] is above or exactly 0.9.
Reply: False

Ask: Kindly determine if phosphorylation enrichment recorded for IHHIDYFKKTT [FGFR1_Y653_YF] is above or exactly 0.9.
Reply: False

Ask: Kindly determine if phosphorylation enrichment recorded for VLALWYFFLTH [ZDHHC23_Y127_YF] is above or exactly 0.9.
Reply: True

###

molecular target: c-Src SH2; experiment: SH2 binding enrichment of the phosphorylated peptide, bacterial display (enrichment ratio); higher = better substrate or ligand; peptides without Tyr show the background
Quick rule for you: SH2 binding enrichment at 0.6 or higher means MET, lower means NOT MET.

Sequence code: YCRHNYGVGES [HLA-DRB1_Y112_V115G]
Target or test system: c-Src SH2
Group: MET
//
Sequence code: GQECKYPPTQD [METAP2_Y137_E136K]
Target or test system: c-Src SH2
Group: MET
//
Sequence code: VRTGIYHGGKP [PIK3CA_Y361_E365K]
Target or test system: c-Src SH2
Group: MET
//
Sequence code: RSLLQYGGSAN [ANK1_Y624]
Target or test system: c-Src SH2
Group: NOT MET
//
Sequence code: FSVDSYDSSVR [KCNQ1_Y461_G460S]
Target or test system: c-Src SH2;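 note: peptide library displayed on the E. coli surface as eCPX fusions, selected cells deep-sequenced, score is each peptide's frequency after selection divided by its frequency in the input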
Group: MET

Ask: Kindly determine if SH2 binding enrichment recorded for KAIMIYVSSFY [ACTN4_Y260_T259I] is above or exactly 0.6.
Reply: NOT MET

Ask: Kindly determine if SH2 binding enrichment recorded for DQNVEYKGTVS [FHL1_Y117_W122S] is above or exactly 0.6.
Reply: NOT MET

###

biological target: Fes (UniProt P07332); assay: phosphorylation enrichment, bacterial display (enrichment ratio); higher = better substrate or ligand; peptides without Tyr show the background
Test readout: phosphorylation enrichment
Answers are plain numbers.

Solved entries:
Sequence code: PIPIKYKAMKK [MYD88_Y257_L252P]
phosphorylation enrichment: 0.72

Sequence code: FYVVRYCWLRR [MPZ_Y181]
phosphorylation enrichment: 0.747

Sequence code: AWVARYIFKRL [LPCAT3_Y348]
phosphorylation enrichment: 1.25

Sequence code: LVRAFYCERRR [CARD11_Y970]
phosphorylation enrichment: 0.713

Sequence code: SKDQIYPMKLK [RANBP17_Y823]
phosphorylation enrichment: 0.533

Sequence code: PRDSGYSFETI [MAP1B_Y1921_S1917R_YF]
phosphorylation enrichment: 1.89

Sequence code: FDCKWYIPLTD [BCR_Y756_YF]
phosphorylation enrichment: 1.49

Sequence code: IYKAAYFGVYD [SLC25A4_Y191_R188K]
phosphorylation enrichment: 1.05

Consider the following items and state reported phosphorylation enrichment for each.
1. AESPEYVHMYT [FAM111A_Y511]
2. VNKIYYPDFIV [LIG3_Y768]

Reply:
1. 1.01
2. 0.918

Consider the following items and state reported phosphorylation enrichment for each.
1. VEDDMYRKTCT [XPA_Y257_L252V]
2. TEDELYQLFLQ [RASGRP2_Y378_S381F]
3. ELQGTYTSLQQ [KIF3C_Y574_R571Q]
4. ERFAFYRDSPR [FOXE3_Y108]

Reply:
1. 1.3
2. 1.56
3. 0.995
4. 0.785
